test system: Ps. aeruginosa Walter; assay: minimum inhibitory concentration, series dilution method on Iso-Sensitest agar; type: cell-based; settings: Pseudomonas aeruginosa, 37° C., about 20 hours
testReadout: MIC
# include the unit after the value

**Q:** MIC for NC1C=CCC2CN(c3c(F)cc4c(=O)c(C(=O)O)cn(C5CC5)c4c3F)CC12 (stereo not drawn) [Example 17 B, reference compound] ?
**A:** 0.25 µg/mL

**Q:** MIC for N[C@@H]1CCC=C2CN(c3c(F)cc4c(=O)c(C(=O)O)cn([C@@H]5C[C@@H]5F)c4c3F)C[C@@H]21 (relative stereo) ?
**A:** 0.25 µg/mL

**Q:** MIC for N[C@@H]1CCC=C2CN(c3c(F)cc4c(=O)c(C(=O)O)cn(C5CC5)c4c3F)C[C@@H]21 (racemic) ?
**A:** 0.125 µg/mL
